Numbers sourced from patent US20210079080A1.

- assayedSystem: T1, VEGF-121-His (inhouse production) (human, UniProt P15692 207-395)
- T1 construct: His-tagged human VEGF-A121 used in the ELISAs and (captured by an anti-His antibody) in SPR; also called hVEGF-A121; his VEGF; not shown: His tag
- T1 sequence: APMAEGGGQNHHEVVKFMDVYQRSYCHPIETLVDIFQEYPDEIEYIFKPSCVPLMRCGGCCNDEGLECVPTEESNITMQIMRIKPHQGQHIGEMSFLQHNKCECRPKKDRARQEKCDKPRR
- procedureDetails: SPR (Biacore), hVEGF-A121 captured by anti-His antibody, Fab injected, 25° C
# Kd values compiled below
Give your result in pM as a bare value.

Below: 3 binders and their reported Kd.
binder	Kd / pM
VEGF-0114 Fab fragment (Fab, V domains shown, Fab with rabbit derived CLkappa and CH1; also called VEGR-0114 Fab) VH: EVQLVESGGGLVQPGGSLRLSCAASGFTFTNYAMTWVRQAPGKGLEWVSSIGSGGFYTYYADSVKGRFTISRDNSKNTLYLQMNSLRAEDTAVYYCAKGDNLFDSWGPGTLVTVSS VL: DIQMTQSPASLSASVGDRVTITCRASQSIYSSLNWYQQKPGKAPKLLIYASTLQSGVPSRFSGSASGTDFTLTISSLQPEDVATYYCQQYQNFPRTFGQGTKLEIKR	55
VEGF-0113 Fab fragment (Fab, V domains shown, Variant of VEGF-0089 (G to P at position 6 of H-CDR2); Fab with rabbit derived CLkappa and CH1) VH: EVQLVESGGGLVQPGGSLRLSCAASGFTFTNYAMTWVRQAPGKGLEWVSSIGNGPGIYTYYADSVKGRFTISRDNSKNTLYLQMNSLRAEDTAVYYCAKGDNLFDSWGPGTLVTVSS VL: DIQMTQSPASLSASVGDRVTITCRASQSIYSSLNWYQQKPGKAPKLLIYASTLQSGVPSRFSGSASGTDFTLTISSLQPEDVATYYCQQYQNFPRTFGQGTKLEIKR	21
L3H6 Fab fragment (Fab, V domains shown, Prior art antibody disclosed in WO 2012089176, made here as Fab) VH: QVQLVQSGAEVKKPGESLKISCKGSGYSFTSYWIGWVRQMPGKGLEWMGIIYPGDSDTRYSPSFQGQVTISADKSISTAYLQWSSLKASDTAMYYCARQGTHNRKIWGQGTMVTVSS VL: QAVVTQEPSLTVSPGGTVTLTCASSTGAVTSGNYPNWFQQRPGQPPRALIYSTSNKHSWTPARFSGSLLGGKAALTLSGAQPEDEAEYYCRLSYDLARPVFGGGTKLTVLG	3360

Attention now turns to another entry.
[Q] Using the record for VEGF-0089 Fab fragment (Fab, V domains shown, also called antibody VEGF-0089) VH: EVQLVESGGGLVQPGGSLRLSCAASGFTFTNYAMTWVRQAPGKGLEWVSSIGNGGGIYTYYADSVKGRFTISRDNSKNTLYLQMNSLRAEDTAVYYCAKGDNLFDSWGPGTLVTVSS VL: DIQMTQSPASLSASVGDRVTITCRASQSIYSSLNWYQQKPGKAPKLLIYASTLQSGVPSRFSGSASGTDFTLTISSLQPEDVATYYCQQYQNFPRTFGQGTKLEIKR , report its Kd.
[A] 134
